Tested on: human SMAD7 mRNA
Assay: Dose-dependent inhibition of human SMAD7 mRNA expression in Hep3B cells (Example 3, Study 1 and 2)
Type: cell-based
Conditions: 20000.0 nM, electroporation, approximately 16 hours, Study 2
Strand notation (5' to 3'): a small letter for the sugar, then the base; units joined by * are phosphorothioate-linked, units joined directly phosphodiester-linked; [ ] holds rarer units or linkages, { } end groups; capitals alone tell only the bases. k = constrained ethyl (cEt); [5mC] = 5-methylcytosine; d = 2'-deoxy (DNA)
readout-name: % inhibition of SMAD7 mRNA expression (%)
Write it as a number; the unit % goes unstated.

Worked cases, % inhibition of SMAD7 mRNA expression given:
Return % inhibition of SMAD7 mRNA expression for the following substance: 790476 (kT*kT*k[5mC]*dT*dT*dG*dA*dG*d[5mC]*dA*d[5mC]*d[5mC]*dG*kA*kG*kT; antisense) [compound 790476] 69

Return % inhibition of SMAD7 mRNA expression for the following substance: 799964 (antisense k[5mC]*k[5mC]*k[5mC]*d[5mC]*dT*dT*dA*dG*d[5mC]*dG*d[5mC]*dA*dT*kT*k[5mC]*kT) [compound 799964] 61

Return % inhibition of SMAD7 mRNA expression for the following substance: 800025 (kA*kG*kT*dA*d[5mC]*dA*dA*dG*dG*dA*d[5mC]*dT*dA*kA*kG*kG; antisense) [compound 800025] 74

Continuing:
Return % inhibition of SMAD7 mRNA expression for the following substance: 799743 (antisense k[5mC]*kT*kG*dG*dA*dG*dT*dT*dA*dT*dT*d[5mC]*dT*k[5mC]*kA*kA) [compound 799743] 64

Return % inhibition of SMAD7 mRNA expression for the following substance: 772732 (kG*kA*kT*dA*dT*dT*dT*dA*dG*d[5mC]*dT*dG*dT*k[5mC]*kA*kG; antisense) [compound 772732] 68

Return % inhibition of SMAD7 mRNA expression for the following substance: 798824 (kG*kA*k[5mC]*dA*d[5mC]*dA*dG*dT*dA*dG*dA*dG*d[5mC]*k[5mC]*kT*k[5mC]; antisense) [compound 798824] 42

Return % inhibition of SMAD7 mRNA expression for the following substance: 772842 (kG*kT*kT*dA*dA*dT*dA*dA*dT*dA*dT*d[5mC]*dT*kT*k[5mC]*k[5mC]; antisense) [compound 772842] 72

Return % inhibition of SMAD7 mRNA expression for the following substance: 799369 (antisense kA*k[5mC]*kT*d[5mC]*dA*d[5mC]*dT*dA*dA*dG*dT*d[5mC]*dT*k[5mC]*k[5mC]*kG) [compound 799369] 74

Return % inhibition of SMAD7 mRNA expression for the following substance: 799878 (kG*k[5mC]*k[5mC]*d[5mC]*d[5mC]*d[5mC]*d[5mC]*dT*d[5mC]*d[5mC]*d[5mC]*d[5mC]*dG*kT*kG*k[5mC]; antisense) [compound 799878] 84

Return % inhibition of SMAD7 mRNA expression for the following substance: 799312 (antisense k[5mC]*kA*kT*d[5mC]*dT*dT*dT*dA*dA*dG*d[5mC]*dA*d[5mC]*kG*k[5mC]*kT) [compound 799312] 69

Return % inhibition of SMAD7 mRNA expression for the following substance: 829956 (k[5mC]*k[5mC]*kT*dT*dG*dT*d[5mC]*dA*d[5mC]*d[5mC]*d[5mC]*dG*dT*k[5mC]*kT*kG; antisense) [compound 829956] 95

Return % inhibition of SMAD7 mRNA expression for the following substance: 830157 (antisense kG*kA*kA*d[5mC]*dT*dG*dT*dG*d[5mC]*d[5mC]*dT*d[5mC]*dA*kG*k[5mC]*kA) [compound 830157] 81
